B1: GLTSCR2 (parent)
chain: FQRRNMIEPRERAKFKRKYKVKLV

Variants of: B1
Test: protein stability index of a GFP-peptide fusion (GPS, HEK-293T) (PSI 1-6); higher = more stable;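 note: lentivirally expressed fusions sorted by FACS into six bins by GFP to DsRed ratio, PSI derived from sequencing read proportions per bin multiplied by bin number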
Conditions: c terminus: a fixed tail appended
endpoint: protein stability index
Number only, please.

>>> reportedvalue("R4V")
3.02
>>> reportedvalue("K22P")
2.38
>>> reportedvalue("P9M")
2.06
>>> reportedvalue("N5T")
1.88
>>> reportedvalue("K22G")
2.97
>>> reportedvalue("Q2T")
2.65
>>> reportedvalue("K14Q")
1.99
>>> reportedvalue("F1S")
2.77
>>> reportedvalue("Q2F")
1.58
>>> reportedvalue("K22V")
2.03

According to the records, this variant K18T displays protein stability index of 2.24

According to the records, this variant L23S displays protein stability index of 2.61

According to the records, this variant A13H displays protein stability index of 2.74

According to the records, this variant K16E displays protein stability index of 1.86

According to the records, this variant Y19W displays protein stability index of 2.39

According to the records, this variant K22L displays protein stability index of 1.85

According to the records, this variant R4D displays protein stability index of 1.98
